- Tested on: MDA-MB-468 breast
- protocol: NCI-60 one-dose screen, 48 h (100 = growth as untreated, 0 = no growth, -100 = all killed)
- condition info: 10 µM unless noted
Compounds without any hit were thinned out: in the full panel of roughly 83,000, 20% have a hit.
What growth was measured for each of the following?
One number for each entry, in %.

Please review the entries below; each comes with its answer.
COc1cc(CC(=O)c2ccc(O)c(OC)c2)ccc1O	101
COc1cccc(-c2nnc(COc3ccc(-c4nc5ccc(C)cc5[nH]4)cc3OC)o2)c1	71
O=C(Nc1ccc(F)cc1)c1cc([N+](=O)[O-])ccc1O	56.3
Oc1ccccc1O	91.1
CCOC(=O)C1=C(CCl)NC(=O)NC1c1ccc2c(c1)OCO2 (configuration not stated)	-1.1

List growth for every entry below, keeping the order given.
1. O=Cc1ccc2nc(C(Cl)(Cl)Cl)ccc2c1
2. Cc1cc(=O)n(-c2ccc(F)cc2)[nH]1

stdout:
[95.2, 113]

* * *

- Tested on: MDA-MB-468 breast
- protocol: NCI-60 one-dose screen, 48 h
- condition info: 10 µM unless noted
Compounds without any hit were thinned out: in the full panel of roughly 83,000, 20% have a hit. Activity calls are given as the source filed them. Rule for the calls: active = growth percent below 10; inactive = the rest.
The reply should be one of these categories: true (1) for active, false (0) for inactive

stdin: Which outcome was assigned to O=C(/C=C1\C(=O)N(Cc2ccccc2)c2ccccc21)c1ccc(OCCN2CCCCC2)cc1 in this test?
stdout: false (0)

stdin: I would be grateful if you could indicate the recorded call for COc1cc(-c2nc(-c3nc4cc(C(=O)c5ccccc5)ccc4[nH]3)cc3c2[nH]c2ccccc23)cc(OC)c1OC .
stdout: false (0)

stdin: Would you mind telling me which call this test gave CC1(C(=O)O)CCC(N)(C(=O)O)C1(C)C (centres undefined) ?
stdout: false (0)

stdin: Look up the recorded call for Cc1ccc(-c2cc3nc(C(Cl)Cl)nc(-c4ccccc4C)n3n2)cc1 in this test.
stdout: false (0)

stdin: Outcome logged for COc1cc2nc3cc([N+](=O)[O-])ccc3c(NCCCNCCO)c2cc1OC in this assay:
stdout: true (1)

stdin: What classification did FC1(F)CCN(Cc2c[nH]c3cc(Cl)ccc23)C[C@H]1CCc1ccccc1 end up with in this test?
stdout: true (1)

stdin: # lookup: test call for COc1cc(OC)c2c(c1)c1nc3cc(C)c(C)cc3nc1n2CCN(C)C
stdout: false (0)

stdin: What is the recorded call for this compound in the test? COc1cc(NC(C)CCCNC(=O)CCC(=O)NCCCNCCCCCCCCCCNCCCNC(=O)CCC(=O)NCCCC(C)Nc2cc(OC)cc3cccnc23)c2ncccc2c1 (centres undefined)
stdout: true (1)

stdin: What did the test return for COc1ccc(-c2nn(-c3cccc(Cl)c3)cc2/C=C2\NC(=S)N(c3ccc(Cl)cc3)C2=O)cc1 ?
stdout: true (1)

* * *

- System: MDA-MB-468 breast
- protocol: NCI-60 one-dose screen, 48 h (100 = growth as untreated, 0 = no growth, -100 = all killed)
- condition info: 10 µM unless noted
Compounds without any hit were thinned out: in the full panel of roughly 83,000, 20% have a hit.
quantity measured: growth (%)
Numbers only, in %.

Guide cases for growth, answers given:
N#Cc1ccc(C(=O)CSc2nccc(Nc3ccc(C(=O)O)cc3)n2)cc1	101
COc1ccc(-c2nocc2-c2cc(OC)c(OC)c(OC)c2)cc1	-15.5
Cc1ccc(NC(=O)Nc2ccc(-c3cccnc3)cc2N2CCC(CO)CC2)cc1	-16.6

List growth for every entry below, keeping the order given.
1. COc1ccc(-n2c(=O)c3ccccc3n(Cc3ccc(C(=O)NO)cc3)c2=O)cc1
2. Fc1ccc(NCc2nnc(-c3ccc(Cl)cc3)o2)cc1

stdout:
3.21
56.9

meta.source: PubChem BioAssay (NCI)
